System: MOLT-4 leukemia
Assay: NCI-60 one-dose screen, 48 h (100 = growth as untreated, 0 = no growth, -100 = all killed)
Conditions: 10 µM unless noted
This is part of a sample that, as a whole, favours compounds with a hit. Of some 83,000 tested, about 20% had one in any assay.
Each entry below carries its recorded growth.
Answer format: numeric, % implied, no suffix.

Completed entries (count: 2):
{"MOLECULE": "CCn1cc(C(=O)N/N=C/c2ccc(Br)cc2)c(=O)c2cc(F)c(N3CCNC(C)C3)c(F)c21 (stereo not drawn)", "growth (%)": 22}
{"MOLECULE": "COC(=O)c1c2c(n3ccc(C)cc13)C(=O)c1ccccc1C2=O", "growth (%)": 51.4}

Okay, now this molecule:
Entry O=C(CCCCCCN1CC(=O)N2[C@@H](c3ccc(Cl)cc3)c3[nH]c4ccccc4c3C[C@H]2C1=O)NO : reported growth = ?
32.3
